# Measured target: RCC356 (Homo sapiens)
# Sequence (Q8TCB6 whole entry): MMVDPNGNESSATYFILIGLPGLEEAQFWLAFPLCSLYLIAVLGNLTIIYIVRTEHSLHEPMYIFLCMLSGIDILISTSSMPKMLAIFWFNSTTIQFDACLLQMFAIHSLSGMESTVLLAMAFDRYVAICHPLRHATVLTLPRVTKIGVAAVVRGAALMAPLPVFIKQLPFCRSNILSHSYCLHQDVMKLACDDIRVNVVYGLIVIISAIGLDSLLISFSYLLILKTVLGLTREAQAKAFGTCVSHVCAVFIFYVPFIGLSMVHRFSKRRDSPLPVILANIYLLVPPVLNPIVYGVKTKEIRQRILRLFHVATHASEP
# Assay name: Concentration-response analysis of odorants on Hek293 cells overexpressing RCC356 polypeptide, CRE-luciferase reporter (Dual-Glo)
# Applied conditions: 0.1 μM to 1 mM, CRE-luciferase, read-out: Ec50 of RCC356 activation
Quantity: EC50 (µM)
Numeric answer only, unit µM assumed.

Please give the measured EC50 for this compound: CCCCCCCCC(=O)O
643

Please give the measured EC50 for this compound: C=CCCCC(=O)O
485

Please give the measured EC50 for this compound: CCCCCCCC(=O)O
329

Please give the measured EC50 for this compound: CC(C)CC(=O)O
25

Please give the measured EC50 for this compound: CCCCC(=O)O
97

Next:
Please give the measured EC50 for this compound: CCCCCC(=O)O
91

Please give the measured EC50 for this compound: CCCCCCC(=O)O
260

Please give the measured EC50 for this compound: O=C(O)C1CCCCC1 [hexahydrobenzoic acid]
104
